- System Under Test: HLA-A*24:03
- Measurement Notes: IEDB peptide-MHC binding, purified MHC/direct/fluorescence; filed as Kd, often an IC50 or EC50 that approximates it; bounds were set here for any values at or beyond the usual limits of such assays
- Measurement Setup: source organism: Pseudomonas aeruginosa
pKd: −log10 of the molar value.
Measured Metric: pKd

[
  {
    "Record Sequence": "VVAVGGLAI",
    "System Under Test": "HLA-A*24:03",
    "Measured Metric": "pKd",
    "Test Value": "≤ 4.70"
  }
]

Here is the next item to consider.
# input Entry `LPQTRWQAV` : reported pKd = ?
# output ≤ 4.70
